Target: rat M4 mAChR (Rattus norvegicus, UniProt P08485)
Sequence (P08485 1-478): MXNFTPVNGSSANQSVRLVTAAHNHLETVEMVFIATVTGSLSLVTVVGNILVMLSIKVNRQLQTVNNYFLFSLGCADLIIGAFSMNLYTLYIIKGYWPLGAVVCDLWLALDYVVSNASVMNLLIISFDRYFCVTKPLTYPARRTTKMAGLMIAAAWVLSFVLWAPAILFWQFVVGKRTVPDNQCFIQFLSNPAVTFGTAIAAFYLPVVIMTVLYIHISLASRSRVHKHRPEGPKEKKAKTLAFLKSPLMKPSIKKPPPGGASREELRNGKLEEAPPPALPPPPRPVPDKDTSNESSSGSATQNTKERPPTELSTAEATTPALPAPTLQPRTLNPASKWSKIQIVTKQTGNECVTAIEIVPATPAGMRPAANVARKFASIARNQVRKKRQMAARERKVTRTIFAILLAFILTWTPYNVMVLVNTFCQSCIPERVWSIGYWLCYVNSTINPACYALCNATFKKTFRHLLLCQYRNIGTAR
Assay type: cell-based
Settings: read-out: Rat M4 EC50; potentiation of an EC20 concentration of ACh; average of at least three determinations
quantity_kind: pEC50
Units for pEC50: none; it is -log10 of a concentration expressed in mol/L.

Query :: Lab note: need pEC50 for "Cc1cc(C)c2c(N)c(C(=O)NCc3ccc4c(c3)OCO4)sc2n1" on rat M4 mAChR (Rattus norvegicus, UniProt P08485), anyone have it?
Result :: 6.40
